Target: LRRK2 (Homo sapiens (Human))
Assay: In Vitro LRRK2 Assay (LabChip 3000, fluorescently-labeled peptide substrate)
Type: biochemical
Settings: ATP 130 μM, substrate 1 μM, 2 hours, ambient temperature; LRRK2 variant not given; read-out: Ki (μM), affinity values for LRRK2
value type: Ki (µM)
# unit: µM | format: bare number

Reference set (3 entries):
{"compound": "CC1CCCN(C(=O)CCc2[nH]nc3ccnc(NC4CCOCC4)c23)C1 (stereo in doubt) [Example 2]", "observed": 0.034}
{"compound": "c1ccc2ncc(-c3n[nH]c4ccnc(OC5CCOCC5)c34)cc2c1 [Example 150]", "observed": 0.012}
{"compound": "c1cc2[nH]nc(-c3cnn(C4CCOCC4)c3)c2c(OC2CCOCC2)n1 [Example 186]", "observed": 0.013}

Attention now turns to another entry.
Inquiry: Please look at this compound and report its Ki: CNC(=O)c1cccc(-c2[nH]nc3cc(C)nc(OC4CCOCC4)c23)c1 [Example 171]
Reply text: 0.154

* * *

Ki for assorted compounds
Target: LRRK2 (Homo sapiens (Human), UniProt Q5S007)
Sequence (Q5S007 whole entry G2019S): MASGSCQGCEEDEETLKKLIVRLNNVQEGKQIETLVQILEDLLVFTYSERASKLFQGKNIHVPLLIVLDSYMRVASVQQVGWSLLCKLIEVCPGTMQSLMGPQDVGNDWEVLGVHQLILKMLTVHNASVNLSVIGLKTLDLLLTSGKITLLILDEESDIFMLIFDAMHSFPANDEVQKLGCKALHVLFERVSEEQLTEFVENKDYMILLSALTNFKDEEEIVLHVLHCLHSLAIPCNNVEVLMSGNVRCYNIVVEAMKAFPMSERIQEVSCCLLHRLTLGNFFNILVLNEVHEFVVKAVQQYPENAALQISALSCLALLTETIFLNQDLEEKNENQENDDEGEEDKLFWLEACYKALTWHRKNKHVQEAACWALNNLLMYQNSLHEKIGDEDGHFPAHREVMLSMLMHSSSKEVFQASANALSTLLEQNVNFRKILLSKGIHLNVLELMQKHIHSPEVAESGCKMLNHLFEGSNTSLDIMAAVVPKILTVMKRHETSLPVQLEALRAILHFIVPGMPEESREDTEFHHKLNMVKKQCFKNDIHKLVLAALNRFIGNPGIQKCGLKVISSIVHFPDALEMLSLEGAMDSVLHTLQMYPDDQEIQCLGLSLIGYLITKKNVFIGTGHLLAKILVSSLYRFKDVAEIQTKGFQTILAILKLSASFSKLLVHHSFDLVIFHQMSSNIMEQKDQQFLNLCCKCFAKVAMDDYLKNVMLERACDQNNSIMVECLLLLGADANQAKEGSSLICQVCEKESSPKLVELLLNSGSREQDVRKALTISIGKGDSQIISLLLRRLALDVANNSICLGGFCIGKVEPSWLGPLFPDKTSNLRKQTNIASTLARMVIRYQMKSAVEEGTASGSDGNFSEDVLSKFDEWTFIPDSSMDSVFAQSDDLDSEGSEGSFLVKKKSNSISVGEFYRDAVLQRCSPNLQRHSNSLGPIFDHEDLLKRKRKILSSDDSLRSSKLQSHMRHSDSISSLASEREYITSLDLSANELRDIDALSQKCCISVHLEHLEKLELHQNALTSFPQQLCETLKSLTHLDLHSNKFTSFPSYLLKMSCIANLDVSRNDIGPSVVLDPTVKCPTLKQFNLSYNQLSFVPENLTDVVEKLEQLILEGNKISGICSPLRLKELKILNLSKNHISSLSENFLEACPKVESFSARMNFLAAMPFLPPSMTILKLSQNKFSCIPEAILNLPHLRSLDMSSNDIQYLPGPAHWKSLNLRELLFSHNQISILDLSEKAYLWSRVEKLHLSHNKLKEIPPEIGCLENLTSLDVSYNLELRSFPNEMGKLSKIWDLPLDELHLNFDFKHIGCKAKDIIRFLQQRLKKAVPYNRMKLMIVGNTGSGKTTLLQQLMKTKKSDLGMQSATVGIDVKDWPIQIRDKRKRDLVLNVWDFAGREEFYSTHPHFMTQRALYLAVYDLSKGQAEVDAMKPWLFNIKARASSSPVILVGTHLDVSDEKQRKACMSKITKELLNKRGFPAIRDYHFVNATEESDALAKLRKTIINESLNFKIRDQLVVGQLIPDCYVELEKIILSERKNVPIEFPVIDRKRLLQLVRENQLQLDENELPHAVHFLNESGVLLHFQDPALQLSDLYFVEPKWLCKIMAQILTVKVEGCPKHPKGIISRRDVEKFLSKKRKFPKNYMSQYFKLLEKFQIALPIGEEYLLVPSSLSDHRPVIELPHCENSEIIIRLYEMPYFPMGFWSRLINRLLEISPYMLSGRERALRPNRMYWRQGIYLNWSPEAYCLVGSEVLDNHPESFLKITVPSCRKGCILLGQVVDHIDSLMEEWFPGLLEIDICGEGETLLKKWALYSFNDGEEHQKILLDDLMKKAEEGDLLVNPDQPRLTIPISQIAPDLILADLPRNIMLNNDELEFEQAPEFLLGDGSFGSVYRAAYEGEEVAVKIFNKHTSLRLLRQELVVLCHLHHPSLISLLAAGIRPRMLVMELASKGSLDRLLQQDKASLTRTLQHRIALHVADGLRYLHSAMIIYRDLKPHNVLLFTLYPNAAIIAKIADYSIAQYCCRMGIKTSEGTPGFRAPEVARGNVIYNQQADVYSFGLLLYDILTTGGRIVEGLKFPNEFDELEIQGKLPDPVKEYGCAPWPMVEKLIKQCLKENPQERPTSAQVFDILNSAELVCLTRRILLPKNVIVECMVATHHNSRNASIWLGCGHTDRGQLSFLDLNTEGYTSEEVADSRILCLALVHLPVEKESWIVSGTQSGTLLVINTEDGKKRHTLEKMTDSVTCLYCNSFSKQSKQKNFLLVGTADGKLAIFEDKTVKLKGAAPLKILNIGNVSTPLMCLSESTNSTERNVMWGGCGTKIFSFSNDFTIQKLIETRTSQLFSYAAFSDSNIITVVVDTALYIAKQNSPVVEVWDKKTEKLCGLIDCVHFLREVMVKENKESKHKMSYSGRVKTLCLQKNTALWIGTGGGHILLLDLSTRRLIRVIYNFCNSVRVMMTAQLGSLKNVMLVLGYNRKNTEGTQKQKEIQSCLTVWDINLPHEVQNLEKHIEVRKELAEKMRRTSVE
Test: In Vitro LRRK2 Assay (LabChip 3000, fluorescently-labeled peptide substrate)
Format: biochemical
Conditions: ATP 130 μM, substrate 1 μM, 2 hours, ambient temperature; LRRK2 variant not given; read-out: Ki (μM), affinity values for LRRK2
# unit: µM | format: bare number

Reference set (3 entries):
{"smiles repr": "CNC(=O)c1cccc(-c2[nH]nc3cc(C)nc(OC)c23)c1", "target or test system": "LRRK2 (Homo sapiens (Human), UniProt Q5S007)", "measure unit": "µM", "Ki": 0.199}
{"smiles repr": "c1cc(-c2n[nH]c3ccnc(OC4CCOCC4)c23)cc(N2CCC2)n1", "target or test system": "LRRK2 (Homo sapiens (Human), UniProt Q5S007)", "measure unit": "µM", "Ki": 0.009}
{"smiles repr": "c1cc(-c2n[nH]c3ccnc(NC4CCOCC4)c23)cc(N2CCOCC2)n1", "target or test system": "LRRK2 (Homo sapiens (Human), UniProt Q5S007)", "measure unit": "µM", "Ki": 0.027}

Inquiry: Check LRRK2 (Homo sapiens (Human), UniProt Q5S007) data and give Ki for "N#Cc1cc(-c2n[nH]c3ccnc(OC4CCOCC4)c23)ccn1" .
Reply text: 0.13

Inquiry: Check LRRK2 (Homo sapiens (Human), UniProt Q5S007) data and give Ki for "O=C(c1ccc(CCc2n[nH]c3ccnc(NC4CCCCC4)c23)cc1)N1CCN(C2CC2)CC1" .
Reply text: 0.017

Inquiry: Check LRRK2 (Homo sapiens (Human), UniProt Q5S007) data and give Ki for "CC(C)n1cc(-c2n[nH]c3ccnc(OCC(F)(F)F)c23)cn1" .
Reply text: 0.026

Inquiry: Check LRRK2 (Homo sapiens (Human), UniProt Q5S007) data and give Ki for "CC(C)Oc1nccc2[nH]nc(-c3cc(C(=O)NC4COC4)n(C(C)C)c3)c12" .
Reply text: 0.0024

Inquiry: Check LRRK2 (Homo sapiens (Human), UniProt Q5S007) data and give Ki for "COc1nccc2[nH]nc(-c3cnn(CC(F)(F)F)c3)c12" .
Reply text: 0.025

Inquiry: Check LRRK2 (Homo sapiens (Human), UniProt Q5S007) data and give Ki for "c1cc2[nH]nc(-c3cnn(C4CCCC4)c3)c2c(OC2CCOCC2)n1" .
Reply text: 0.006

Hey, just so you know, these numbers are from patent US8569281B2.
